Origin of values: PubChem BioAssay AID1159580

Can you tell me normalized growth for the items I'm about to list?
assay: chemical genetic growth profiling, strain panel (AID 1159580);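 note: tested at 20 µM; growth read once vehicle control cultures reached saturation at 30 °C; 1 = growth at the plate median or of vehicle wells; lower values mean less growth of the strain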; settings: S. cerevisiae deletion strains, growth OD, locus YMR125W, strain sto1, stronger effect = lower value
About 2,000 (36%) of roughly 5,500 compounds were called active. Another 18% or so got no clear call; they are omitted. Some of the results follow.

normalized growth recorded for this molecule, C/C(=C\C(=O)OCCCCCCCCC(=O)O)C[C@@H]1OC[C@H](C[C@@H]2O[C@H]2[C@@H](C)[C@H](C)O)[C@@H](O)[C@H]1O , is 0.962 (inactive)

O=C1c2c(O)ccc(O)c2C(=O)c2c(NCCNCCO)ccc(NCCNCCO)c21 yielded normalized growth of 0.982 (inactive)

# molecule C=CCc1ccccc1OCC(O)CNC(C)C (stereo not given) ; its normalized growth = 0.993 (inactive)

According to the records, this molecule C[C@@H]1CC[C@@]2(OC1)OC1C(O)C3C4CC[C@H]5C[C@H](O[C@@H]6O[C@H](CO)[C@H](O[C@@H]7O[C@H](CO)[C@@H](O)[C@H](O[C@@H]8OC[C@@H](O)[C@H](O)[C@H]8O)[C@H]7O[C@@H]7O[C@H](CO)[C@H](O)[C@H](O[C@@H]8O[C@H](CO)[C@@H](O)[C@H](O)[C@H]8O)[C@H]7O)[C@H](O)[C@H]6O)[C@H](O)C[C@]5(C)C4CC[C@]3(C)C1[C@@H]2C (stereo not given in full) displays normalized growth of 1.03 (inactive)

Entry CC(=O)O[C@H]1C[C@H](O[C@H]2[C@@H](O)C[C@H](O[C@H]3[C@@H](O)C[C@H](O[C@H]4CC[C@@]5(C)C(CCC6C5C[C@@H](O)[C@]5(C)[C@@H](C7=CC(=O)OC7)CC[C@]65O)C4)O[C@@H]3C)O[C@@H]2C)O[C@H](C)[C@H]1O[C@@H]1O[C@H](CO)[C@@H](O)[C@H](O)[C@H]1O (stereo not given in full) ; normalized growth = 0.979 (inactive)

====

test: chemical genetic growth profiling, strain panel (AID 1159580);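 note: tested at 20 µM; growth read once vehicle control cultures reached saturation at 30 °C; 1 = growth at the plate median or of vehicle wells; lower values mean less growth of the strain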; settings: S. cerevisiae deletion strains, growth OD, locus YDL192W, strain arf1, stronger effect = lower value
Hit rate of the full screen: of about 5,500 compounds, about 2,000 (36%) were called active. Not shown: some 18% with an inconclusive outcome. The list shows a part of the results.
measure name: normalized growth

Recorded result, Cc1coc2ccccc2c1=O , normalized growth: 1.03 (inactive)

compound O=c1c(-c2cc(O)c(O)c(O)c2)coc2cc(O)c(O)c(O)c12 , normalized growth observed: 0.927 (inactive)

Looking up CSc1ccc2c(c1)C(N1CCN(C)CC1)Cc1ccccc1S2 (stereo unspecified) , I found its normalized growth recorded as 0.102 (active)

normalized growth measured on COC(=O)C1=C(C)NC(C)=C(C(=O)OCCN(C)Cc2ccccc2)C1c1cccc([N+](=O)[O-])c1 (stereo unspecified) = 0.992 (inactive)

In plain terms, Nc1ccc(C(=O)O)c(O)c1 (tested in a mixture with another compound) has a documented normalized growth of 0.988 (inactive)

Sure, the documented normalized growth for NCCc1ccc(O)cc1 is 1 (inactive)

For this compound ( NCCc1ccc(O)c(O)c1 ), measured normalized growth is 0.995 (inactive)

Summary for this compound, CN1CCN2c3ccccc3Cc3ccccc3C2C1 (stereo unspecified) : normalized growth is 0.989 (inactive)

// recorded normalized growth for CC(C)[C@]12O[C@H]1[C@@H]1O[C@@]13[C@@]1(C)CCC4=C(COC4=O)[C@@H]1C[C@@H]1O[C@@]13C2=O : 0.994 (inactive)

Noted for COc1ccc(-c2coc3cc(O)cc(O)c3c2=O)cc1 : its normalized growth reads 0.28 (active)

Given item CC(=O)Nc1cccc(O)c1 , the value recorded as its normalized growth is 1.01 (inactive)

// field: normalized growth; key: O=c1oc2ccccc2c(O)c1Cc1c(O)c2ccccc2oc1=O ; value = 0.962 (inactive)

// field: normalized growth; key: COc1c2c(cc3c1OCO3)CC[N+](C)=C2 ; value = 1 (inactive)

The recorded normalized growth for CC1=NCCc2c1[nH]c1cc(O)ccc21 is 0.992 (inactive)

Summary for this compound, Nc1ccc(C(=O)O)c(O)c1 : normalized growth is 0.994 (inactive)

What the record says about O=C1CCc2cc(OCCCCc3nnnn3C3CCCCC3)ccc2N1 : normalized growth is 0.971 (inactive)

normalized growth in this record for Clc1ccc(Cl)cc1 : 0.983 (inactive)

Measured normalized growth of CC(N)Cc1ccc(O)cc1 (stereo unspecified) : 1.03 (inactive)

Short answer for Nc1ccc(C(=O)Oc2ccccc2)c(O)c1 : normalized growth was 0.807 (active)

Kindly note the recorded normalized growth for COC(=O)C1=C(C)NC(C)=C(C(=O)OC)C1c1ccccc1[N+](=O)[O-] , which is 0.85 (active)

The compound listed as O=c1c2ccccc2[se]n1-c1ccccc1 shows normalized growth equal to 0.0608 (active)

normalized growth reported for this compound Cn1c(=O)c2[nH]c(C3CCCC3)nc2n(C)c1=O : 1 (inactive)

The value of normalized growth measured for the compound CC(=O)O[C@H]1C[C@@H](O)C(C)(C)C2C[C@@H](OC(C)=O)[C@]3(C)C(CC[C@@]4(C)[C@H](c5ccoc5)OC(=O)C5OC543)[C@]21C (stereo partly specified) turned out to be 0.97 (inactive)

Query CC(=O)Nc1ccc(O)cc1 yields normalized growth of 0.981 (inactive)

Documented normalized growth of Cc1cc(=O)c2c(o1)-c1c(cc(O)c(O)c1C(=O)O)OC2 : 1.01 (inactive)

Lookup result for COc1cc2cc[n+]3cc4c(OC)c(OC)ccc4cc3c2cc1OC ; measured normalized growth: 0.986 (inactive)
